All values here come from PubChem BioAssay (NCI).

Listing of entries alongside the reported TGI.
- Test system: COLO 205 colon
- runDescription: NCI tumour cell line growth inhibition, 48 h

Example entries begin here.
compound	TGI
CCCCCCCSCC(O)COC(c1ccccc1)(c1ccccc1)c1ccccc1 (stereo not drawn)	> 100 µM
CN1C[C@@H]2CCCN2P1Oc1cccc2cccnc12 (stereo partly drawn)	> 100 µM
O=C(NCc1ccccc1)c1cnc(Cl)cn1	> 100 µM

# lookup: TGI of CN(Cc1cnc2nc(N)nc(N)c2n1)c1ccc(C(=O)NC(CCC(=O)O)C(=O)O)cc1 (stereo not drawn)
> 100 µM

# lookup: TGI of COc1cccc(C2C(C(=O)Nc3cc(=O)n(C)c(=O)n3C)=C(C)NC(C)=C2C(=O)Nc2cc(=O)n(C)c(=O)n2C)c1O
> 100 µM

# lookup: TGI of O=[As](O)(O)c1ccc(Cc2ccc([As](=O)(O)O)cc2)cc1
1.9 µM

# lookup: TGI of Fc1ccc(-c2ncn(C3CCNCC3)c2-c2ccnc(Oc3cccc(F)c3)n2)cc1
9.67 µM

# lookup: TGI of Cc1cc(=Nc2ccc3c(c2)c(N)cc(C)[n+]3C)nc(N)n1C
> 100 µM

# lookup: TGI of C=C1C(C)C2C(Cc3ccccc3)NC(=O)C23C(OC(C)=O)/C=C/C(C)(O)CC(C)C/C=C/C3C1O (stereo not drawn)
> 100 µM

# lookup: TGI of Cc1cn(C2CC(N=[N+]=[N-])C(CO[Si](C)(C)C(C)(C)C)O2)c(=O)[nH]c1=O (stereo not drawn)
35.6 µM

# lookup: TGI of Oc1c(CN2CCCC2)cc(COCc2ccccc2)c2cccnc12
26.6 µM

# lookup: TGI of COc1ccc(C(=O)C=C2NCCN2)cc1
> 100 µM

# lookup: TGI of CC12ON=C(c3ccccc3)N1C=CN1C(c3ccccc3)=NOC12 (stereo not drawn)
> 100 µM

# lookup: TGI of CC(Cc1ccc(O)c(O)c1)C(C)Cc1ccc(O)c(O)c1 (stereo not drawn)
35.9 µM

# lookup: TGI of C#Cc1ccc(NC(=O)c2ccc(/C=C/C(=O)c3nccn3C)cc2)cc1
1.36 µM

# lookup: TGI of CC1(C)CC(=O)c2c(nc3ccc4ccccc4c3c2-c2ccc(NC(=O)CCCCC(=O)Nc3ccc(-c4c5c(nc6ccc7ccccc7c46)CC(C)(C)CC5=O)cc3)cc2)C1
> 100 µM

# lookup: TGI of CCCCCCCCCC(=O)CC(=O)c1c(O)cccc1O
35.8 µM

# lookup: TGI of O=C1/C(=C/c2cccs2)CCC/C1=C\c1cccs1
> 100 µM

# lookup: TGI of COCN1C(=O)[C@@H]2CCCN2C(=O)c2cc([N+](=O)[O-])ccc21
> 100 µM

###

- System: RXF 393 renal
- runDescription: NCI tumour cell line growth inhibition, 48 h
Where a SMILES comes first, the peptide text is derived from it. The star is where a group is joined. Cbz = O=C(OCc1ccccc1)*
measure: TGI

compound	assaySystem	TGI
Nc1ncc(Cc2nc3ccccc3s2)s1	RXF 393 renal	> 100 µM
CCC1(C)N=C(C(N)=O)c2ncn(N=C(C)C)c2N1 (stereo not given)	RXF 393 renal	> 100 µM
CN(O)C(=O)Cc1ccccc1	RXF 393 renal	> 100 µM
CCC1(OC(C)=O)C(=O)OCc2c1cc1n(c2=O)Cc2cc3ccccc3nc2-1 (stereo not given)	RXF 393 renal	> 22.6 µM

# lookup: TGI of CCOC(=O)C(C)NC(=O)C(C)NC(=O)C(C)NC(=O)C(C)NC(=O)C(C)NC(=O)C(C)NC(=O)C(C)NC(=O)OCc1ccccc1 (stereo not given) (Cbz-AAAAAAA-OEt; configuration not given here)
> 100 µM

###

Listing of entries alongside the reported TGI.
- System: 786-0 renal
- runDescription: NCI tumour cell line growth inhibition, 48 h

Example entries begin here.
compound	assaySystem	TGI
O=C(/C=C/c1ccc(O)c(O)c1)OCCOC(=O)/C=C/c1ccc(O)c(O)c1	786-0 renal	> 100 µM
CC(=O)OC[C@@]12C[C@H]3C(=O)C(C)(C)C[C@H]3[C@]1(C)[C@@H](OC(C)=O)[C@]1(O)[C@H]([C@@H](OC(=O)c3ccccc3)[C@@H](C)[C@H]1OC(C)=O)[C@H]2OC(C)=O	786-0 renal	> 20 µM
CC(=O)OC1CCC2(C)C(=CC(C3C=C4CC(OC(C)=O)CCC4(C)C4=C3C3CC5OC6(CCC(C)CO6)C(C)C5C3(C)CC4)C3=C2CCC2(C)C3CC3OC4(CCC(C)CO4)C(C)C32)C1 (centres undefined)	786-0 renal	29.6 µM

Moving on to another compound below.
What reported TGI corresponds to Cc1cc(C)c(C(=O)OC(c2ccccc2)C(c2ccccc2)N2CCOCC2)c(C)c1 (centres undefined) on 786-0 renal?
> 100 µM

###

- System: SK-OV-3 ovarian
- runDescription: NCI tumour cell line growth inhibition, 48 h
Where a SMILES comes first, the peptide text is derived from it. The star is where a group is joined. Cbz = O=C(OCc1ccccc1)*
Listing of entries alongside the reported TGI.

molecule	TGI
Oc1ccccc1-n1c(-c2ccccc2)ccc1-c1ccccc1	> 100 µM
Cc1nc(C(N)=S)sc1C(=O)/C=C/c1cccc(O)c1	> 100 µM
Cc1ccc(NC(=O)C(=O)Cc2nc3ccccc3o2)c(C)c1	> 100 µM
CCOC(=O)c1c(SCCO)n(-c2ccccc2)c(=S)n(-c2ccccc2)c1=O	> 100 µM

# lookup: TGI of Cc1nc(-c2nc([N+](=O)[O-])c([N+](=O)[O-])[nH]2)cs1
> 100 µM

# lookup: TGI of COc1ccccc1-n1c(SCc2cc(OC)c(OC)c(OC)c2)nc2ccc(Cl)cc2c1=O
> 100 µM

# lookup: TGI of CCCC[C@@H](COC(=O)N(Cc1cccs1)Cc1cccs1)NC(=O)N[C@@H](CC(=O)OC)c1ccc2c(c1)OCO2
> 100 µM

# lookup: TGI of COc1cc(C2C(C#N)=C(N)OC3=C2C(=O)c2ccccc2C3=O)cc(OC)c1OC (stereo not given)
> 100 µM

# lookup: TGI of COC(=O)C1=C(C(=O)OC)C2(C(=O)OC)OC1(OC)C(C1(C(=O)OC)C(C(=O)OC)=C1C(=O)OC)=C2C(=O)OC (stereo not given)
> 100 µM

# lookup: TGI of CCOC(=O)C(C)NC(=O)C(C)NC(=O)C(C)NC(=O)C(C)NC(=O)C(C)NC(=O)C(C)NC(=O)C(C)NC(=O)OCc1ccccc1 (stereo not given) (Cbz-AAAAAAA-OEt; configuration not given here)
> 100 µM

###

Listing of entries alongside the reported TGI.
- System: UO-31 renal
- runDescription: NCI tumour cell line growth inhibition, 48 h

Example entries begin here.
compound	TGI
COc1ccc(/C=C(\C#N)c2cc3ccccc3n2C)cc1	> 100 µM
Cc1cc2c(-c3ccccc3)cc(=O)[nH]c2cc1N	> 100 µM

What reported TGI corresponds to Cc1cccc2c1C(=O)C(C1OC(=O)c3ccccc31)C2 (stereo not drawn) on UO-31 renal?
> 100 µM

###

- System: DMS 273 small cell lung
- runDescription: NCI tumour cell line growth inhibition, 48 h
Listing of entries alongside the reported TGI.

Example entries begin here.
compound	assaySystem	TGI
CC[C@@H]1OC2(C)CC(S(=O)(=O)c3ccccc3)CC1O2 (some centres undefined)	DMS 273 small cell lung	> 100 µM
COc1cc(Br)c(CC2=NCCc3cc(OC)c(OC)cc32)cc1OC	DMS 273 small cell lung	51.3 µM
C/C(=N\Nc1ccc([N+](=O)[O-])cc1)C(=O)N(C)Nc1ccccc1	DMS 273 small cell lung	> 100 µM

Moving on to another compound below.
# lookup: TGI of COC1=C(OC)CCC(/C(C#N)=C/c2ccc(OC)c(OC)c2)=C1
> 100 µM

###

- Test system: MALME-3M melanoma
- runDescription: NCI tumour cell line growth inhibition, 48 h
Listing of entries alongside the reported TGI.

Example entries begin here.
molecule	TGI
COc1cc2c(c(OC)c1OC)C(=O)CC2N (stereo not drawn)	> 100 µM
COc1ccc([C@H]2O[C@@H](CO)C[C@]2(O)c2ccc(OC)cc2)cc1	> 100 µM

What reported TGI corresponds to O=C(O)CCC1(c2ccccc2)NC(=O)NC1=O (stereo not drawn) on MALME-3M melanoma?
> 100 µM

###

Listing of entries alongside the reported TGI.
- Test system: SF-539 CNS
- runDescription: NCI tumour cell line growth inhibition, 48 h
Where a SMILES comes first, the peptide text is derived from it. The star is where a group is joined. Cbz = O=C(OCc1ccccc1)*

Example entries begin here.
compound	TGI
Fc1ccc(C(OCCN2CCC3CCC(C2)N3Cc2cc3ccccc3[nH]2)c2ccc(F)cc2)cc1 (stereo not given)	3.01 µM
CC[C@H](C)[C@H](NC(=O)C12C3C4C1C1C2C3C41NC(C)=O)C(=O)N(C)[C@H](C[C@@H](OC(C)=O)c1nc(C(=O)N[C@@H](Cc2ccccc2)C[C@H](C)C(=O)OC)cs1)C(C)C (stereo not given in full)	1.01 µM
Cc1[nH]c2ccccc2c1C=Nc1ccc(Oc2ccccc2)cc1	33 µM
CCOC(=O)C(C)NC(=O)C(C)NC(=O)C(C)NC(=O)C(C)NC(=O)C(C)NC(=O)C(C)NC(=O)C(C)NC(=O)OCc1ccccc1 (stereo not given) (Cbz-AAAAAAA-OEt; configuration not given here)	> 100 µM

Moving on to another compound below.
# lookup: TGI of NC(=O)N(O)c1cccc(Br)c1
> 100 µM
